Please go through the items and note down their Base generation temperature.
assayExplanation: Base generation temperature by differential scanning calorimetry
Assay type: physicochemical
assayConditions: DSC, heated to 250° C. at 5° C./min in pressure-resistant capsule; peak temperature of lowest exothermic peak

Hi! Can you tell me Base generation temperature for each of these compounds?
1. CC[N+](CC)(CC)C(c1ccccc1)c1ccccc1.O=C([O-])C(=O)O
2. CCCCC(CC)C[N+](C)(C)CC(=O)c1ccccc1.O=C([O-])/C=C\C(=O)O (stereo not shown)
3. CCN(CC)CC.O=C(O)CCC(=O)O
4. C1CN2CCN1CC2.O=C(O)C(=O)O
5. C[N+]1(CC(=O)c2ccccc2)CCCCC1.O=C([O-])C(=O)O

1. 170 °C
2. 150 °C
3. 170 °C
4. 70 °C
5. 140 °C

Give Base generation temperature for each listed item.
1. CCCCCCCCCCCC[N+](C)(C)CC(=O)c1ccccc1.O=C([O-])CCC(=O)O
2. CCCCCCCCCCCC[N+](C)(C)CC(=O)c1ccccc1.O=C([O-])/C=C\C(=O)O
3. COc1ccc(N(CC(=O)O)CC(=O)O)cc1
4. O=C(O)CN(CC(=O)Nc1ccccc1)c1ccccc1

1. 130 °C
2. 150 °C
3. 140 °C
4. 130 °C
